Reference for the values: patent US20110135636A1

# measurement target: T1, recombinant human EGFR extracellular domain with 6xHis (human, UniProt P00533 25-645)
# T1 construct: In-house produced; also called 6xHis EGFR ECD; soluble human EGFR ECD; not shown: 6xHis tag
# assay name: SPR competition, competitor 992 corr
Provide the recorded % inhibition for the entries that follow.
Record the result as number plus unit.

Name the recorded % inhibition of the item antibody 992 (antibody, human IgG1, kappa, V domains shown, Chimeric mouse/human IgG1 kappa; the VL entry includes the human kappa constant region) VH: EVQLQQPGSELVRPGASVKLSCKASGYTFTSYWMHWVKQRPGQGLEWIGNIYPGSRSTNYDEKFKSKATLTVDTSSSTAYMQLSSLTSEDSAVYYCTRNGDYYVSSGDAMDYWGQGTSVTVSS VL: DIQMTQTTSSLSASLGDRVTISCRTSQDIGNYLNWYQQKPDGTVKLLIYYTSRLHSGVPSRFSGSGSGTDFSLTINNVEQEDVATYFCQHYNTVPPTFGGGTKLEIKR in your answer.
96%

Name the recorded % inhibition of the item antibody 1042 (antibody, human IgG1, kappa, V domains shown, Chimeric IgG1 kappa; RA- left out of the VH entry) VH: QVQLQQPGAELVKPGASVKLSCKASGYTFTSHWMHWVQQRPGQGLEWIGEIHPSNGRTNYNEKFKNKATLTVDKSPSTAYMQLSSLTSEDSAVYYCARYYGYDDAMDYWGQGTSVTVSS VL: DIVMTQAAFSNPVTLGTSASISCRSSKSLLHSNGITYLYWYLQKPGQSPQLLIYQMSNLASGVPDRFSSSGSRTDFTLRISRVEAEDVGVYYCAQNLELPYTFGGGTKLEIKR in your answer.
25%

Name the recorded % inhibition of the item antibody 1030 (antibody, human IgG1, kappa, V domains shown, Chimeric IgG1 kappa) VH: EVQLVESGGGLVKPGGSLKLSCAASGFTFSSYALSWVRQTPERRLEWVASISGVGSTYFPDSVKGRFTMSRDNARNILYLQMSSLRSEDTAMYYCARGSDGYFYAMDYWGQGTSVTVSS VL: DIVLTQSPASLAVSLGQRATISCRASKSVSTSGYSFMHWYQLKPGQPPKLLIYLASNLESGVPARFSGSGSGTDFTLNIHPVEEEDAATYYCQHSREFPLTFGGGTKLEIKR in your answer.
-3%

Name the recorded % inhibition of the item antibody 1284 (antibody, human IgG1, kappa, V domains shown, Chimeric IgG1 kappa) VH: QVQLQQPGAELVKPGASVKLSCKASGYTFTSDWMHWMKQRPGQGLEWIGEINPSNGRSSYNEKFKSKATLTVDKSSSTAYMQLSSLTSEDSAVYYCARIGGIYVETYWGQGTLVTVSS VL: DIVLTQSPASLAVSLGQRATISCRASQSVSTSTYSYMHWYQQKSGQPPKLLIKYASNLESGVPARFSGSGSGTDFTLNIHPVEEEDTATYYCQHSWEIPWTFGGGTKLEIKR in your answer.
6%
